- System: foxtail, giant (giant foxtail, Setaria faberii)
- Method description: Test A preemergence, foxtail, giant
- Assay type: in vivo
- Test settings: Setaria faberi, pre-emergence, 240 h, 31 g ai/ha, 0 to 100 scale (0 no effect, 100 complete control), read-out: Plant response rating, Foxtail, Giant
Attribute measured: pest or weed control at 31 g/ha (%)
One number for each entry, in %.

These solved cases illustrate the format of a correct answer.
Molecule	Value measured
FC(F)(F)CCC1OCCc2cccc(Oc3ncc(Cl)cn3)c21 (stereo not drawn)	0
O=C1OC(CCC(F)(F)F)Cc2c(Oc3ncc(Cl)cn3)cccc21 (stereo not drawn)	0
FC(F)(F)CCCC1OCCc2cccc(Oc3ncc(Cl)cn3)c21 (stereo not drawn)	50
O=C1c2cccc(Oc3ncc(Cl)cn3)c2C1CCC(F)(F)F (stereo not drawn)	0
O=C1Cc2cccc(Oc3ncc(Cl)cn3)c2C(CCC(F)(F)F)O1 (stereo not drawn)	10
O=C1OCC(CCC(F)(F)F)c2c(Oc3ncc(Cl)cn3)cccc21 (stereo not drawn)	20
O=C1c2cccc(Oc3ncc(Cl)cn3)c2C1CCCC(F)(F)F (stereo not drawn)	10
FC(F)(F)CC[C@@H]1OCc2cccc(Oc3ncc(Cl)cn3)c21	0

Request: Would you mind telling me what pest or weed control at 31 g/ha value was observed for O=C1Cc2cccc(Oc3ncc(Cl)cn3)c2C(CCCC(F)(F)F)O1 (stereo not drawn) ?
Result: 10

###

- System: blackgrass (Alopecurus myosuroides)
- Method description: Test A postemergence, blackgrass
- Format: in vivo
- Test settings: Alopecurus myosuroides, post-emergence, 240 h, 31 g ai/ha, 0 to 100 scale (0 no effect, 100 complete control), read-out: Plant response rating, Blackgrass
Use condition met when the recorded pest or weed control at 31 g/ha is no lower than 20%; use condition not met when it is lower.

# example entries with known answers
Molecule	Assigned label
FC(F)(F)CCC1COc2cccc(Oc3ncc(Cl)cn3)c21 (stereo not drawn)	condition not met
FC(F)(F)CC[C@@H]1OCc2cccc(Oc3ncc(Cl)cn3)c21	condition not met
FC(F)(F)CCC1OCCc2cccc(Oc3ncc(Cl)cn3)c21 (stereo not drawn)	condition not met
O=C1OCc2cccc(Oc3ncc(Cl)cn3)c2C1CCC(F)(F)F (stereo not drawn)	condition met
O=C1Cc2cccc(Oc3ncc(Cl)cn3)c2C(CCC(F)(F)F)O1 (stereo not drawn)	condition not met

Request: Reported pest or weed control at 31 g/ha at or above 20%? `O=C1O[C@H](CCC(F)(F)F)c2c(Oc3ncc(Cl)cn3)cccc21`
Result: condition met

Request: And what about the molecule OC1CC(CCCC(F)(F)F)c2c(Oc3ncc(Cl)cn3)cccc21 (stereo not drawn) ?
Result: condition not met

###

- Test system: pigweed (Amaranthus retroflexus)
- Method description: Test A preemergence, pigweed
- Format: in vivo
- Test settings: Amaranthus retroflexus, pre-emergence, 240 h, 31 g ai/ha, 0 to 100 scale (0 no effect, 100 complete control), read-out: Plant response rating, Pigweed
Attribute measured: pest or weed control at 31 g/ha (%)
One number for each entry, in %.

These solved cases illustrate the format of a correct answer.
Molecule	Unit of measurement	Value measured
O=C1OC(CCC(F)(F)F)Cc2c(Oc3ncc(Cl)cn3)cccc21 (stereo not shown) [Compound 23]	%	20
OC1CC(CCCC(F)(F)F)c2c(Oc3ncc(Cl)cn3)cccc21 (stereo not shown) [Compound 10]	%	100
CN1C(=O)c2cccc(Oc3ncc(Cl)cn3)c2C1CCCC(F)(F)F (stereo not shown) [Compound 12]	%	0

Field: pest or weed control at 31 g/ha. Fill in for each record below.
1. O=C1COC(CCCC(F)(F)F)c2c(Oc3ncc(Cl)cn3)cccc21 (stereo not shown) [Compound 5]
2. O=C1c2cccc(Oc3ncc(Cl)cn3)c2C1CCC(F)(F)F (stereo not shown) [Compound 24]
3. FC(F)(F)CCCC1OCc2cccc(Oc3ncc(Cl)cn3)c21 (stereo not shown) [Compound 7]
4. O=C1CC(CCC(F)(F)F)c2c(Oc3ncc(Cl)cn3)cccc21 (stereo not shown) [Compound 11]

Result:
0
0
20
10

Field: pest or weed control at 31 g/ha. Fill in for each record below.
1. O=C1O[C@@H](CCCC(F)(F)F)c2c(Oc3ncc(Cl)cn3)cccc21 [Compound 2]
2. FC(F)(F)CCCC1COc2cccc(Oc3ncc(Cl)cn3)c21 (stereo not shown) [Compound 33]
3. O=C1OCC(CCC(F)(F)F)c2c(Oc3ncc(Cl)cn3)cccc21 (stereo not shown) [Compound 25]
4. FC(F)(F)CC[C@@H]1OCc2cccc(Oc3ncc(Cl)cn3)c21 [Compound 21]
5. O=C1Cc2cccc(Oc3ncc(Cl)cn3)c2C(CCC(F)(F)F)O1 (stereo not shown) [Compound 28]

Result:
1. 0
2. 0
3. 10
4. 0
5. 10
